Biological target: mutated GPR17 receptor (Arg255Ile) (Homo sapiens, UniProt Q13304, R283I)
Sequence (Q13304 29-367 R283I): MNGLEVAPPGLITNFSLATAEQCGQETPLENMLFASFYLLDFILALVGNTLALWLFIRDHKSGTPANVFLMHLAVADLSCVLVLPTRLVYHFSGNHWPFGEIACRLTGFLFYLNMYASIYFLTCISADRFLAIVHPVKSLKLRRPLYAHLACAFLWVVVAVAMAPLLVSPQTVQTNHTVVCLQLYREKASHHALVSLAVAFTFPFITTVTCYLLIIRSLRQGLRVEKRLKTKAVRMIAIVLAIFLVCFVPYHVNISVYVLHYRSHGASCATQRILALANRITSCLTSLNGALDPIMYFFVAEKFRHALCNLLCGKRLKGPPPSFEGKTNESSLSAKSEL
Test: FAC-MS screening on mutated GPR17-IAM column
Assay type: binding
Conditions: Library A, mutated GPR17-IAM column (19.5 million cells)
MEASUREMENT_NAME: t (min), breakthrough time

Query: What value of measured t (min), breakthrough time is listed for N.N.N.O=c1[nH]c(=O)n([C@@H]2O[C@H](COP(=O)(O)OP(=O)(O)O)[C@@H](O)[C@H]2O)cc1I ?
Result: 2.51 min

Query: What value of measured t (min), breakthrough time is listed for CNc1ncnc2c1ncn2[C@H]1C[C@H](OP(=O)(O)O)[C@@H](COP(=O)(O)O)O1.N.N ?
Result: 3.47 min

Query: What value of measured t (min), breakthrough time is listed for N.N.N.N.Nc1nc(C#Cc2ccccc2)nc2c1ncn2[C@@H]1O[C@H](COP(=O)(O)OP(=O)(O)OP(=O)(O)O)[C@@H](O)[C@H]1O ?
Result: 16.07 min

Query: What value of measured t (min), breakthrough time is listed for CSCCNc1nc(SCCC(F)(F)F)nc2c1ncn2[C@@H]1O[C@H](COP(=O)([O-])OP(=O)([O-])C(Cl)(Cl)P(=O)([O-])[O-])[C@@H](O)[C@H]1O.[Na+].[Na+].[Na+].[Na+] [Cangrelor, cangrelor, reference compound] ?
Result: 13.16 min

Query: What value of measured t (min), breakthrough time is listed for O=c1ccn([C@@H]2O[C@H](COP(=O)([O-])OP(=O)([O-])[O-])[C@@H](O)[C@H]2O)c(=O)[nH]1.[Na+].[Na+].[Na+] [UDP, uridine diphosphate] ?
Result: 2.15 min

* * *

So I've got a bunch of compounds here, and I need their breakthrough time Mutated GPR17-IAM (Table 5) values.
Molecular target: mutated GPR17 receptor (Arg255Ile) (Homo sapiens, UniProt Q13304, R283I)
Experiment: FAC-MS screening on mutated GPR17-IAM column
Assay type: binding
Settings: Library A, 1 µM each, mutated GPR17-IAM column (19.5 million cells)
Returns: the value as a bare number; no unit string appended.

Query: What value of measured breakthrough time Mutated GPR17-IAM (Table 5) is listed for N.N.N.N.O=P(O)(O)OP(=O)(O)OP(=O)(O)OC[C@H]1O[C@@H](n2cnc3c(NC4CCCC4)ncnc32)[C@H](O)[C@@H]1O ?
Result: 7.08

Query: What value of measured breakthrough time Mutated GPR17-IAM (Table 5) is listed for CNc1nc(Cl)nc2c1ncn2[C@@H]1O[C@H](COP(=O)(O)OP(=O)(O)OP(=O)(O)O)[C@@H](O)[C@H]1O.N.N.N.N ?
Result: 5.27

Query: What value of measured breakthrough time Mutated GPR17-IAM (Table 5) is listed for CNc1ncnc2c1ncn2[C@H]1C[C@H](OP(=O)(O)O)[C@@H](COP(=O)(O)O)O1.N.N ?
Result: 3.47

* * *

Target: wild type GPR17 (Homo sapiens, UniProt Q13304)
Sequence (Q13304 29-367): as the sequence (Q13304 29-367 R283I) above, with I255R counted along it
Test: [35S]GTPγS binding functional assay, 1321N1 cells expressing wild-type GPR17
Assay type: biochemical
Settings: wild-type GPR17
MEASUREMENT_NAME: pharmacological profile (agonist/antagonist) in [35S]GTPγS binding

# MOLECULE, RESULT
records = [
    ("N.N.N.O=c1[nH]c(=O)n([C@@H]2O[C@H](COP(=O)(O)OP(=O)(O)O)[C@@H](O)[C@H]2O)cc1I [Compound 13]", "agonist profile"),
    ("N.N.N.N.O=P(O)(O)OP(=O)(O)OP(=O)(O)OC[C@H]1O[C@@H](n2cnc3c(NC4CCCC4)ncnc32)[C@H](O)[C@@H]1O [Compound 6]", "agonist profile"),
]

* * *

So I've got a bunch of compounds here, and I need their t (min), breakthrough time values.
Biological target: wild type GPR17 (Homo sapiens, UniProt Q13304)
Test: FAC-MS screening on GPR17-IAM-II column
Format: binding
Settings: Library A, column GPR17-IAM-II (19.5 million cells), single ranking experiment
Unit min implied. Number only.

Query: What value of measured t (min), breakthrough time is listed for N.N.N.O=c1[nH]c(=O)n([C@@H]2O[C@H](COP(=O)(O)OP(=O)(O)O)[C@@H](O)[C@H]2O)cc1I ?
Result: 2.79

Query: What value of measured t (min), breakthrough time is listed for CNc1nc(Cl)cc2c1ncn2[C@@H]1O[C@H](COP(=O)(O)OP(=O)(O)OP(=O)(O)O)[C@@H](O)[C@H]1O.N.N.N.N ?
Result: 4.77

Query: What value of measured t (min), breakthrough time is listed for N.N.Nc1nc(Cl)nc2c1ncn2[C@H]1C[C@H](OP(=O)(O)O)[C@@H](COP(=O)(O)O)O1 ?
Result: 3.55

Query: What value of measured t (min), breakthrough time is listed for N.N.N.N.O=P(O)(O)OP(=O)(O)OP(=O)(O)OC[C@H]1O[C@@H](n2cnc3c(NC4CCCC4)ncnc32)[C@H](O)[C@@H]1O ?
Result: 5.67

Query: What value of measured t (min), breakthrough time is listed for O=c1ccn([C@@H]2O[C@H](COP(=O)([O-])OP(=O)([O-])[O-])[C@@H](O)[C@H]2O)c(=O)[nH]1.[Na+].[Na+].[Na+] [UDP, uridine diphosphate] ?
Result: 2.69

Query: What value of measured t (min), breakthrough time is listed for CNc1ncnc2c1ncn2[C@@H]1O[C@H](COP(=O)(O)OP(=O)(O)OP(=O)(O)O)[C@@H](O)[C@H]1O.N.N.N.N ?
Result: 3.69

Query: What value of measured t (min), breakthrough time is listed for CCCCC#Cc1cn([C@@H]2O[C@H](COP(=O)(O)OP(=O)(O)O)[C@@H](O)[C@H]2O)c(=O)[nH]c1=O [Compound 14, 5-Hexynyluridine Diphosphate] ?
Result: 2.97

Query: What value of measured t (min), breakthrough time is listed for CNc1ncnc2c1ncn2[C@H]1C[C@H](OP(=O)(O)O)[C@@H](COP(=O)(O)O)O1.N.N ?
Result: 3.62

Query: What value of measured t (min), breakthrough time is listed for N.N.N.N.Nc1nc(C#Cc2ccccc2)nc2c1ncn2[C@@H]1O[C@H](COP(=O)(O)OP(=O)(O)OP(=O)(O)O)[C@@H](O)[C@H]1O ?
Result: 13.07

* * *

Biological target: wild type GPR17 (Homo sapiens)
Experiment: FAC-MS screening on GPR17-IAM-II column
Format: binding
Settings: Library A, column GPR17-IAM-II
MEASUREMENT_NAME: t/tC × 100 (%)
Unit % implied. Number only.

Query: What value of measured t/tC × 100 is listed for CNc1nc(Cl)cc2c1ncn2[C@@H]1O[C@H](COP(=O)(O)OP(=O)(O)OP(=O)(O)O)[C@@H](O)[C@H]1O.N.N.N.N ?
Result: 45.00

Query: What value of measured t/tC × 100 is listed for CSCCNc1nc(SCCC(F)(F)F)nc2c1ncn2[C@@H]1O[C@H](COP(=O)([O-])OP(=O)([O-])C(Cl)(Cl)P(=O)([O-])[O-])[C@@H](O)[C@H]1O.[Na+].[Na+].[Na+].[Na+] [Cangrelor, cangrelor, reference compound] ?
Result: 100.00

Query: What value of measured t/tC × 100 is listed for N.N.N.N.O=P(O)(O)OP(=O)(O)OP(=O)(O)OC[C@H]1O[C@@H](n2cnc3c(NC4CCCC4)ncnc32)[C@H](O)[C@@H]1O ?
Result: 53.49

Query: What value of measured t/tC × 100 is listed for N.N.Nc1nc(Cl)nc2c1ncn2[C@H]1C[C@H](OP(=O)(O)O)[C@@H](COP(=O)(O)O)O1 ?
Result: 33.49

Query: What value of measured t/tC × 100 is listed for O=c1ccn([C@@H]2O[C@H](COP(=O)([O-])OP(=O)([O-])[O-])[C@@H](O)[C@H]2O)c(=O)[nH]1.[Na+].[Na+].[Na+] [UDP, uridine diphosphate] ?
Result: 25.38

Query: What value of measured t/tC × 100 is listed for CCCCC#Cc1cn([C@@H]2O[C@H](COP(=O)(O)OP(=O)(O)O)[C@@H](O)[C@H]2O)c(=O)[nH]c1=O [Compound 14, 5-Hexynyluridine Diphosphate] ?
Result: 28.02

Query: What value of measured t/tC × 100 is listed for CNc1ncnc2c1ncn2[C@@H]1O[C@H](COP(=O)(O)OP(=O)(O)OP(=O)(O)O)[C@@H](O)[C@H]1O.N.N.N.N ?
Result: 34.81

Query: What value of measured t/tC × 100 is listed for N.N.N.N.Nc1nc(C#Cc2ccccc2)nc2c1ncn2[C@@H]1O[C@H](COP(=O)(O)OP(=O)(O)OP(=O)(O)O)[C@@H](O)[C@H]1O ?
Result: 123.30

Query: What value of measured t/tC × 100 is listed for CNc1ncnc2c1ncn2[C@H]1C[C@H](OP(=O)(O)O)[C@@H](COP(=O)(O)O)O1.N.N ?
Result: 34.15

Query: What value of measured t/tC × 100 is listed for CNc1nc(Cl)nc2c1ncn2[C@@H]1O[C@H](COP(=O)(O)OP(=O)(O)OP(=O)(O)O)[C@@H](O)[C@H]1O.N.N.N.N ?
Result: 42.45

Query: What value of measured t/tC × 100 is listed for N.N.N.O=c1[nH]c(=O)n([C@@H]2O[C@H](COP(=O)(O)OP(=O)(O)O)[C@@H](O)[C@H]2O)cc1I ?
Result: 26.32

All values here come from paper PMC6201305.
